System: Her2-positive breast cancer cell line SK-BR-3
Test: In vitro cytotoxicity assay (CellTiter Glo) on SK-BR-3
Format: cell-based
Conditions: range over Ramos and SK-BR-3, 72 hour incubation; read-out: EC50s, medium cytotoxicity of positive control
Non-standard residues stand in square brackets, D forms with d. Residues, ends and D or L forms follow the SMILES beside them. Dolaproine = CO[C@@H]([C@@H]1CCCN1)[C@@H](C)C(=O)O; Dil = CC[C@H](C)[C@H](NC)[C@@H](CC(=O)O)OC; NMeV = CN[C@H](C(=O)O)C(C)C
observed.property: EC50

Consider CC[C@H](C)[C@@H]([C@@H](CC(=O)N1CCC[C@H]1[C@H](OC)[C@@H](C)C(=O)N[C@@H](Cc1ccccc1)C(=O)O)OC)N(C)C(=O)[C@@H](NC(=O)[C@@H](NC)C(C)C)C(C)C [MMAF, monomethyl auristatin F] (H-[NMeV]V[Dil][Dolaproine]F-OH) . Its measured EC50 is 50 to 89 nM
